Attribution: patent EP2716637A1

test: Blood concentration after oral (intragastric) administration to Beagle dogs; type: in vivo; conditions: intragastrically, 6mg/kg, solid powder, 1.5 hr, listed as Commercially available mangiferin aglycone, 6 mg/kg, 90 min, read-out: Mangiferin aglycone concentration in serum
observedProperty: concentration (nM)
Supply the numeric figure in nM, leaving out any unit text.

Qu. Recall and state the measured concentration for O=c1c2cc(O)c(O)cc2oc2cc(O)cc(O)c12 [mangiferin aglycone, 1,3,6,7-tetrahydroxyxanthone] .
Ans. 136

====

assay: Blood concentration after oral (intragastric) administration to Beagle dogs; format: in vivo; details: intragastrically, 6mg/kg, solid powder, 4 hr, listed as Commercially available mangiferin aglycone, 6 mg/kg, 240 min, read-out: Mangiferin aglycone concentration in serum
observedProperty: concentration (nM)
Respond numerically; units are nM and should not be typed.

Qu. # return recorded concentration for input O=c1c2cc(O)c(O)cc2oc2cc(O)cc(O)c12 [mangiferin aglycone, 1,3,6,7-tetrahydroxyxanthone]
Ans. 70.1

====

assay: Stability of solutions in alkaline phosphate buffer, content by HPLC; assay type: physicochemical; conditions: phosphate buffer, pH 8, phosphate buffer pH8, 37°C, standing time 2h; read-out: content of mangiferin aglycone
observedProperty: remaining at 2 h (%)
Hi! Could you send only the number? It should be in %, unit omitted.

Qu. Read off the recorded remaining at 2 h for O=c1c2cc(O)c(O)cc2oc2cc(O)cc(O)c12 [mangiferin aglycone crystal form I, 1,3,6,7-tetrahydroxyxanthone]
Ans. 98.6

====

experiment: Stability of solutions in alkaline phosphate buffer, content by HPLC; format: physicochemical; conditions: phosphate buffer, pH 10, phosphate buffer pH10, 37°C, standing time 2h; read-out: content of mangiferin aglycone
observedProperty: remaining at 2 h (%)
Only the number, expressed in %, is required.

Qu. Output measured remaining at 2 h for this item: O=c1c2cc(O)c(O)cc2oc2cc(O)cc(O)c12 [mangiferin aglycone crystal form I, 1,3,6,7-tetrahydroxyxanthone]
Ans. 97.2

====

experiment: Stability of solutions in alkaline phosphate buffer, content by HPLC; format: physicochemical; settings: phosphate buffer, pH 9, phosphate buffer pH9, 37°C, standing time 8h; read-out: content of mangiferin aglycone
observedProperty: remaining at 8 h

Qu. # return recorded remaining at 8 h for input O=c1c2cc(O)c(O)cc2oc2cc(O)cc(O)c12 [mangiferin aglycone crystal form I, 1,3,6,7-tetrahydroxyxanthone]
Ans. 97.8%

====

experiment: Stability of solutions in alkaline phosphate buffer, content by HPLC; format: physicochemical; conditions: phosphate buffer, pH 8, phosphate buffer pH8, 37°C, standing time 4h; read-out: content of mangiferin aglycone
observedProperty: remaining at 4 h (%)
// units = %; emit number, no label

Qu. Answer with the recorded remaining at 4 h of O=c1c2cc(O)c(O)cc2oc2cc(O)cc(O)c12 [mangiferin aglycone crystal form I, 1,3,6,7-tetrahydroxyxanthone] only.
Ans. 98.4

====

assay: Stability of solutions in alkaline phosphate buffer, content by HPLC; assay type: physicochemical; conditions: phosphate buffer, pH 8, phosphate buffer pH8, 37°C, standing time 12h; read-out: content of mangiferin aglycone
observedProperty: remaining at 12 h (%)
Enter your answer as a number in %; do not include the unit.

Qu. Retrieve remaining at 12 h measured for O=c1c2cc(O)c(O)cc2oc2cc(O)cc(O)c12 [mangiferin aglycone crystal form I, 1,3,6,7-tetrahydroxyxanthone] and print it.
Ans. 97.5

====

assay: Blood concentration after oral (intragastric) administration to Beagle dogs; type: in vivo; conditions: dog, serum, po, 6 mg/kg, intragastrically, 6mg/kg, solid powder, 6 hr, read-out: Mangiferin aglycone concentration in serum
observedProperty: concentration at 6 h
Value and unit, in that order.

Qu. Item O=c1c2cc(O)c(O)cc2oc2cc(O)cc(O)c12 [mangiferin aglycone crystal form I, 1,3,6,7-tetrahydroxyxanthone] : provide concentration at 6 h
Ans. 84.4 nM

====

test: Blood concentration after oral (intragastric) administration to Beagle dogs; format: in vivo; conditions: dog, serum, po, 6 mg/kg, intragastrically, 6mg/kg, solid powder, 1.5 hr, read-out: Mangiferin aglycone concentration in serum
observedProperty: concentration at 1.5 h (nM)
Give a bare numeral; the unit nM is implied.

Qu. Kindly indicate its recorded concentration at 1.5 h. Item: O=c1c2cc(O)c(O)cc2oc2cc(O)cc(O)c12 [mangiferin aglycone crystal form I, 1,3,6,7-tetrahydroxyxanthone]
Ans. 163

====

assay: Blood concentration after oral (intragastric) administration to Beagle dogs; format: in vivo; settings: dog, serum, po, 6 mg/kg, intragastrically, 6mg/kg, solid powder, 0.5 hr, read-out: Mangiferin aglycone concentration in serum
observedProperty: concentration at 0.5 h (nM)
State the answer as a number, implicitly in nM.

Qu. Identify concentration at 0.5 h associated with the molecule O=c1c2cc(O)c(O)cc2oc2cc(O)cc(O)c12 [mangiferin aglycone crystal form I, 1,3,6,7-tetrahydroxyxanthone]
Ans. 470

====

experiment: Blood concentration after oral (intragastric) administration to Beagle dogs; type: in vivo; conditions: dog, serum, po, 6 mg/kg, intragastrically, 6mg/kg, solid powder, 4 hr, read-out: Mangiferin aglycone concentration in serum
observedProperty: concentration at 4 h
Please don't drop the unit; write it after the number.

Qu. Please supply the value of reported concentration at 4 h for the item O=c1c2cc(O)c(O)cc2oc2cc(O)cc(O)c12 [mangiferin aglycone crystal form I, 1,3,6,7-tetrahydroxyxanthone]
Ans. 96 nM

====

assay: Blood concentration after oral (intragastric) administration to Beagle dogs; type: in vivo; conditions: intragastrically, 6mg/kg, solid powder, 0.75 hr, listed as Commercially available mangiferin aglycone, 6 mg/kg, 45 min, read-out: Mangiferin aglycone concentration in serum
observedProperty: concentration (nM)
Please state the figure in nM; there is no need to write the unit.

Qu. // Input: O=c1c2cc(O)c(O)cc2oc2cc(O)cc(O)c12 [mangiferin aglycone, 1,3,6,7-tetrahydroxyxanthone] . Output its concentration only.
Ans. 414

====

assay: Blood concentration after oral (intragastric) administration to Beagle dogs; type: in vivo; settings: intragastrically, 6mg/kg, solid powder, 1 hr, listed as Commercially available mangiferin aglycone, 6 mg/kg, 60 min, read-out: Mangiferin aglycone concentration in serum
observedProperty: concentration (nM)
Number in nM, nothing else.

Qu. Using known records, supply concentration for O=c1c2cc(O)c(O)cc2oc2cc(O)cc(O)c12 [mangiferin aglycone, 1,3,6,7-tetrahydroxyxanthone]
Ans. 366

====

experiment: Blood concentration after oral (intragastric) administration to Beagle dogs; format: in vivo; conditions: dog, serum, po, 6 mg/kg, intragastrically, 6mg/kg, solid powder, 0.25 hr, read-out: Mangiferin aglycone concentration in serum
observedProperty: concentration at 0.25 h (nM)
Kindly provide the numeric value in nM only, without the unit symbol.

Qu. Assign concentration at 0.25 h to the following record: O=c1c2cc(O)c(O)cc2oc2cc(O)cc(O)c12 [mangiferin aglycone crystal form I, 1,3,6,7-tetrahydroxyxanthone]
Ans. 721

====

experiment: Stability of solutions in alkaline phosphate buffer, content by HPLC; assay type: physicochemical; details: phosphate buffer, pH 8, phosphate buffer pH8, 37°C, standing time 8h; read-out: content of mangiferin aglycone
observedProperty: remaining at 8 h (%)
Report only the number, with the unit % understood.

Qu. Answer with the recorded remaining at 8 h for the molecule listed here: O=c1c2cc(O)c(O)cc2oc2cc(O)cc(O)c12 [mangiferin aglycone crystal form I, 1,3,6,7-tetrahydroxyxanthone]
Ans. 98.2

====

test: Blood concentration after oral (intragastric) administration to Beagle dogs; assay type: in vivo; conditions: dog, serum, po, 6 mg/kg, intragastrically, 6mg/kg, solid powder, 3 hr, read-out: Mangiferin aglycone concentration in serum
observedProperty: concentration at 3 h

Qu. Determine from records and report concentration at 3 h for O=c1c2cc(O)c(O)cc2oc2cc(O)cc(O)c12 [mangiferin aglycone crystal form I, 1,3,6,7-tetrahydroxyxanthone]
Ans. 119 nM

====

assay: Stability of solutions in alkaline phosphate buffer, content by HPLC; format: physicochemical; conditions: phosphate buffer, pH 9, phosphate buffer pH9, 37°C, standing time 4h; read-out: content of mangiferin aglycone
observedProperty: remaining at 4 h (%)
Field format: number, assumed %, no unit text.

Qu. Read off the recorded remaining at 4 h for O=c1c2cc(O)c(O)cc2oc2cc(O)cc(O)c12 [mangiferin aglycone crystal form I, 1,3,6,7-tetrahydroxyxanthone]
Ans. 98.2

====

test: Stability of solutions in alkaline phosphate buffer, content by HPLC; type: physicochemical; conditions: phosphate buffer, pH 9, phosphate buffer pH9, 37°C, standing time 2h; read-out: content of mangiferin aglycone
observedProperty: remaining at 2 h (%)
Give just the numeric value; % need not be written.

Qu. Assign remaining at 2 h to the following record: O=c1c2cc(O)c(O)cc2oc2cc(O)cc(O)c12 [mangiferin aglycone crystal form I, 1,3,6,7-tetrahydroxyxanthone]
Ans. 98.5
